Some compounds, each annotated with its measured IC50.
# tested on: CDK2/Cyclin E1 (Homo sapiens)
# Construct: purchased Eurofins 14-475
# protocol notes: CDK2/Cyclin E1 Caliper LabChip EZ Reader mobility shift assay
# Format: biochemical
# condition label: 2.5 nM CDK2/Cyclin E1, 100 μM ATP, 1.5 μM fluorescent peptide, 30 min preincubation; read-out: Caliper Assay (CDK2/CCNE1): IC50

# compound, tested on, IC50
records = [
    ("Cc1ccc(CNC(=O)[C@@H]2CN(C(=O)c3cnn(Cc4ccccc4)c3)CC23CN(C(=O)[C@H]2CC2(C)C)C3)nn1 [Compound I-20]", "CDK2/Cyclin E1 (Homo sapiens)", "> 10 µM"),
]

Prompt: Which IC50 is reported for this compound? C[C@@H](OCC1CCCCC1)[C@H](NC(=O)C1CSCC12CN(C(=O)[C@H]1CC1(C)C)C2)C(=O)N1CCCCC1 (stereo partly drawn) [Compound I-23]
Response: > 10 µM

Prompt: Which IC50 is reported for this compound? COC[C@H]1CCCN(C(=O)[C@@H](NC(=O)[C@@H]2CN(C(=O)c3cncs3)CC23CN(S(=O)(=O)C2CC2(C)C)C3)[C@@H](C)OCC2CCCCC2)C1 (stereo partly drawn) [Compound I-18]
Response: 1 to 10 µM

Prompt: Which IC50 is reported for this compound? C[C@@H](OCC1CCCCC1)C(NC(=O)[C@@H]1CCOC12CN(C(=O)[C@H]1CC1(C)C)C2)C(=O)N1CCCCC1 (single isomer, unassigned) [I-29 1st]
Response: > 10 µM

Prompt: Which IC50 is reported for this compound? C[C@@H](OCC1CCCCC1)[C@H](NC(=O)C1CS(=O)(=O)CC12CN(C(=O)[C@H]1CC1(C)C)C2)C(=O)N1CCCCC1 (stereo partly drawn) [Compound I-26]
Response: > 10 µM

Prompt: Which IC50 is reported for this compound? CNC(=O)[C@@H](NC(=O)[C@@H]1CCOC12CN(C(=O)[C@H]1CC1(C)C)C2)[C@@H](C)OCC1CCCCC1 (single isomer, unassigned) [I-35 2nd]
Response: > 10 µM

---

# tested on: CDK2/Cyclin E1 (Homo sapiens, UniProt P24941)
# Construct: purchased Eurofins 14-475
# protocol notes: CDK2/Cyclin E1 Caliper LabChip EZ Reader mobility shift assay
# Format: biochemical
# condition label: 2.5 nM CDK2/Cyclin E1, 100 μM ATP, 1.5 μM fluorescent peptide, 30 min preincubation; read-out: Caliper Assay (CDK2/CCNE1): IC50
recorded metric: IC50

Examples with answers:
# molecule, recorded metric, measured
data = [
    ("C[C@@H](OCC1CCCCC1)[C@H](NC(=O)[C@@H]1CN(C(=O)OC(C)(C)C)CC12CN(C(=O)[C@H]1CC1(C)C)C2)C(=O)N1CCCCC1", "IC50", "1 to 10 µM"),
    ("CNC(=O)[C@@H](NC(=O)[C@@H]1CN(C(C)=O)CC12CN(C(=O)[C@H]1CC1(C)C)C2)[C@@H](C)OCC1CCCCC1", "IC50", "> 10 µM"),
    ("CC(=O)N1CC(c2nnc(C(F)(F)c3ccc(Cl)c(Cl)c3)o2)C2(CCOCC2)C1 (centres unmarked)", "IC50", "> 10 µM"),
    ("O=C(c1cncs1)N1CC(c2nnc(C(F)(F)c3ccc(Cl)c(Cl)c3)o2)C2(CCN(C(=O)[C@H]3CC3(F)F)CC2)C1 (some centres unmarked)", "IC50", "> 10 µM"),
    ("O=C(c1cc(F)n[nH]1)N1CC(c2nnc(C(F)(F)c3ccc(Cl)c(Cl)c3)o2)C2(CCOCC2)C1 (centres unmarked)", "IC50", "> 10 µM"),
]

Prompt: Which IC50 is reported for this molecule? O=C(c1cncs1)N1CC(c2nnc(C(F)(F)c3ccc(Cl)c(Cl)c3)o2)C2(CCOCC2)C1 (centres unmarked)
Response: > 10 µM

Prompt: Which IC50 is reported for this molecule? C[C@@H](OCC1CCCCC1)[C@H](NC(=O)[C@@H]1CCOC12CN(C(=O)[C@H]1CC1(C)C)C2)C(=O)N1CCC[C@H](N)C1 (single isomer, unassigned)
Response: > 10 µM

Prompt: Which IC50 is reported for this molecule? CC(=O)N[C@@H](C(=O)NC1CN(C(=O)c2cncs2)CC12CN(C(=O)[C@H]1CC1(C)C)C2)[C@H](C)OCC1CCCCC1 (some centres unmarked)
Response: 1 to 10 µM
